Provide the reported normalized growth of each item.
assay: chemical genetic growth profiling, strain panel (AID 1159580);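 also: tested at 20 µM; growth read once vehicle control cultures reached saturation at 30 °C; 1 = growth at the plate median or of vehicle wells; lower values mean less growth of the strain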; details: S. cerevisiae deletion strains, growth OD, locus YKR026C, strain gcn3, hits give low values
Hit rate of the full screen: of about 5,500 compounds, about 2,000 (36%) were called active. Not shown: some 18% with an inconclusive outcome. Some of the results follow.
The response must contain the number and no unit.

Entry CC(=O)O[C@H]1C[C@@H](O)C(C)(C)C2C[C@@H](OC(C)=O)[C@]3(C)C(CC[C@@]4(C)[C@H](c5ccoc5)OC(=O)C5OC543)[C@]21C (stereo partly drawn) has what normalized growth? 1.01

Entry `COc1cc2cc[n+]3cc4c(OC)c(OC)ccc4cc3c2cc1OC` has what normalized growth? 0.985

Entry `O=c1c(-c2cc(O)c(O)c(O)c2)coc2cc(O)c(O)c(O)c12` has what normalized growth? 0.995

Entry C=C1C2CC[C@@]3(C)[C@H](c4ccoc4)OC(=O)C[C@]13O[C@H]1CC(=O)C(C)(C)[C@H](C(O)C(=O)OC)[C@@]21C (stereo partly drawn) has what normalized growth? 0.994

Entry `COc1ccc(-c2cc(=O)c3ccccc3o2)cc1` has what normalized growth? 0.92

Entry `CN(N=O)C(=O)N[C@@H]1[C@@H](O)[C@H](O)[C@@H](CO)O[C@@H]1O` has what normalized growth? 0.973

Entry `ClC(Cl)=C(c1ccc(Cl)cc1)c1ccc(Cl)cc1` has what normalized growth? 1

Entry `Nc1nnc(-c2cccc(Cl)c2Cl)c(N)n1` has what normalized growth? 1

Entry COc1cc([C@@H]2c3cc4c(cc3C(O[C@@H]3O[C@@H]5CO[C@@H](c6cccs6)OC5[C@H](O)[C@H]3O)C3COC(=O)[C@@H]32)OCO4)cc(OC)c1O (stereo partly drawn) has what normalized growth? 0.986

Entry `CC(C)=CCc1c2c(c(O)c3c(=O)c(O)c(-c4ccccc4)oc13)C=CC(C)(C)O2` has what normalized growth? 0.899

Entry `CCn1cc(C(=O)O)c(=O)c2cc(F)c(N3CCNCC3)cc21` has what normalized growth? 0.978

Entry `COc1cc2c(cc1OC)-c1cc3ccc(OC)c(OC)c3c[n+]1CC2` has what normalized growth? 0.966

Entry CC1(C)O[C@@H]2CC3C4CCC5=CC(=O)C=C[C@]5(C)[C@@]4(F)[C@@H](O)C[C@]3(C)[C@]2(C(=O)CO)O1 (stereo partly drawn) has what normalized growth? 1.01

Entry `COc1ccc(-c2cc(=O)c3cc(OC)ccc3o2)cc1` has what normalized growth? 0.942

Entry `COc1ccc2cc3[n+](cc2c1OC)CCc1cc2c(cc1-3)OCO2` has what normalized growth? 0.994

Entry C=CCc1ccccc1OCC(O)CNC(C)C (stereo not drawn) has what normalized growth? 0.988

Entry `C[n+]1cc2c3c(ccc2c2ccc4cc5c(cc4c21)OCO5)OCO3` has what normalized growth? 0.843

Entry CN1CCOC(c2ccccc2)c2ccccc2C1 (stereo not drawn) has what normalized growth? 0.978

Entry `NCCc1ccc(O)cc1` has what normalized growth? 0.972

Entry `O=c1oc2ccccc2c(O)c1Cc1c(O)c2ccccc2oc1=O` has what normalized growth? 1.02

Entry `CC1=C2C(=CO[C@H](C)[C@H]2C)C(=O)C(C(=O)O)=C1O` has what normalized growth? 0.979

Entry CC(C)(O)[C@@H]1CC[C@](C)([C@H]2[C@@H](O)C[C@@]3(C)C4C[C@H](O[C@@H]5O[C@H](CO)[C@@H](O)[C@H](O)[C@H]5O)C5C(C)(C)[C@@H](O[C@@H]6OC[C@@H](O)[C@H](O)[C@H]6O)CC[C@@]56C[C@@]46CC[C@]23C)O1 (stereo partly drawn) has what normalized growth? 0.992

Entry `O=C(O)/C=C(\CC(=O)O)C(=O)O` has what normalized growth? 0.993

Entry `CCCCCCc1ccc(O)cc1O` has what normalized growth? 0.972

Entry `NCCc1ccc(O)c(O)c1` has what normalized growth? 1

Entry CCOC(=O)C1C(C=C(C)C)C1(C)C (stereo not drawn) has what normalized growth? 1

Entry `O=C(O)c1nc2cc(Cl)c(Cl)cc2[nH]c1=O` has what normalized growth? 1.02

Entry `O=c1c2ccccc2oc2ccccc12` has what normalized growth? 0.949

Entry `COc1ccc(-c2cc(=O)c3c(OC)c(OC)c(OC)c(OC)c3o2)cc1` has what normalized growth? 0.974

Entry `COc1ccc(-c2cc(=O)c3c(O)c(OC)c(OC)c(OC)c3o2)cc1` has what normalized growth? 1.01

Entry `CC(C)c1ccc2c(c1O)CC[C@H]1C3=C(CC[C@]21C)C(=O)OC3` has what normalized growth? 0.931

Entry CN1CCN2c3ccccc3Cc3ccccc3C2C1 (stereo not drawn) has what normalized growth? 1

Entry `O=c1[nH]c2cc(Cl)c(Cl)cc2[nH]c1=O` has what normalized growth? 0.989

###

Provide the reported normalized growth of each item.
test: chemical genetic growth profiling, strain panel (AID 1159580);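 also: tested at 20 µM; growth read once vehicle control cultures reached saturation at 30 °C; 1 = growth at the plate median or of vehicle wells; lower values mean less growth of the strain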; settings: S. cerevisiae deletion strains, growth OD, locus YCL011C, strain gbp2, hits give low values
The whole screen tested about 5,500 compounds, of which about 2,000 (36%) were called active. Roughly 18% stayed inconclusive and do not appear here. This is one part of the list.
The response must contain the number and no unit.

Entry `CCCCC1C(=O)N(c2ccccc2)N(c2ccccc2)C1=O` has what normalized growth? 1

Entry `Nc1nnc(-c2cccc(Cl)c2Cl)c(N)n1` has what normalized growth? 1.02

Entry C[C@@H]1CC[C@@]2(OC1)OC1C(O)C3C4CC[C@H]5C[C@H](O[C@@H]6O[C@H](CO)[C@H](O[C@@H]7O[C@H](CO)[C@@H](O)[C@H](O[C@@H]8OC[C@@H](O)[C@H](O)[C@H]8O)[C@H]7O[C@@H]7O[C@H](CO)[C@H](O)[C@H](O[C@@H]8O[C@H](CO)[C@@H](O)[C@H](O)[C@H]8O)[C@H]7O)[C@H](O)[C@H]6O)[C@H](O)C[C@]5(C)C4CC[C@]3(C)C1[C@@H]2C (stereo partly drawn) has what normalized growth? 0.986

###

experiment: chemical genetic growth profiling, strain panel (AID 1159580);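 also: tested at 20 µM; growth read once vehicle control cultures reached saturation at 30 °C; 1 = growth at the plate median or of vehicle wells; lower values mean less growth of the strain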; settings: S. cerevisiae deletion strains, growth OD, locus YOR290C, strain snf2, hits give low values
Hit rate of the full screen: of about 5,500 compounds, about 2,000 (36%) were called active. Inconclusive results (about 18%) are left out. The list shows a part of the results.
Lab note - cut at 1 for normalized growth: Condition met if strictly below, Condition not met if not.

Strictly below 1: is that where normalized growth of `COc1ccc(-c2cc(=O)c3ccccc3o2)cc1` sits? Condition met

Strictly below 1: is that where normalized growth of `S=c1ccss1` sits? Condition met

Strictly below 1: is that where normalized growth of C=CCCCCCCCCCCCC(O)CC(O)CO (stereo not drawn) sits? Condition met

Strictly below 1: is that where normalized growth of `CN(C)CCC=C1c2ccccc2CCc2ccccc21` sits? Condition met

Strictly below 1: is that where normalized growth of `Nc1ccc(C(=O)O)c(O)c1` sits? Condition met

Strictly below 1: is that where normalized growth of `COc1c(O)cccc1O` sits? Condition not met

###

Provide the reported normalized growth of each item.
assay: chemical genetic growth profiling, strain panel (AID 1159580);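 also: tested at 20 µM; growth read once vehicle control cultures reached saturation at 30 °C; 1 = growth at the plate median or of vehicle wells; lower values mean less growth of the strain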; conditions: S. cerevisiae deletion strains, growth OD, locus YMR058W, strain fet3, hits give low values
The whole screen tested about 5,500 compounds, of which about 2,000 (36%) were called active. Not shown: some 18% with an inconclusive outcome. The list shows a part of the results.
The response must contain the number and no unit.

Entry `O=c1[nH]c2cc(Cl)c(Cl)cc2[nH]c1=O` has what normalized growth? 0.994

Entry `C/C(=C\C(=O)OCCCCCCCCC(=O)O)C[C@@H]1OC[C@H](C[C@@H]2O[C@H]2[C@@H](C)[C@H](C)O)[C@@H](O)[C@H]1O` has what normalized growth? 0.989

Entry `O=C(O)c1nc2cc(Cl)c(Cl)cc2[nH]c1=O` has what normalized growth? 1.02

Entry CC(=O)CC(c1ccccc1)c1c(O)c2ccccc2oc1=O (stereo unspecified) has what normalized growth? 1.01

Entry COC(=O)C1=C(C)NC(C)=C(C(=O)OCC(C)C)C1c1ccccc1[N+](=O)[O-] (stereo unspecified) has what normalized growth? 0.0888

Entry CC[N+]1(C)CCCC(OC(=O)C(O)(c2ccccc2)c2ccccc2)C1 (stereo unspecified) has what normalized growth? 1.02

Entry `C[N+]1(CCCCC[N+]2(C)CCCC2)CCCC1` has what normalized growth? 0.999

Entry CC(=O)OCC(=O)[C@H]1CCC2C3CC=C4C[C@@H](O)CC[C@]4(C)C3CC[C@@]21C (stereo partly specified) has what normalized growth? 0.924

Entry COCCOC(=O)C1=C(C)NC(C)=C(C(=O)OC(C)C)C1c1cccc([N+](=O)[O-])c1 (stereo unspecified) has what normalized growth? 1.02

Entry `O=C(O)/C=C(\CC(=O)O)C(=O)O` has what normalized growth? 0.997

Entry `CC1=C2C(=CO[C@H](C)[C@H]2C)C(=O)C(C(=O)O)=C1O` has what normalized growth? 1

Entry CN1CCOC(c2ccccc2)c2ccccc2C1 (stereo unspecified) has what normalized growth? 1.01

Entry `CCn1cc(C(=O)O)c(=O)c2cc(F)c(N3CCNCC3)cc21` has what normalized growth? 0.986

Entry `O=c1c2ccccc2oc2ccccc12` has what normalized growth? 0.918

Entry CCOC(=O)C1C(C=C(C)C)C1(C)C (stereo unspecified) has what normalized growth? 1

Entry `CC(C)(Oc1ccc(Cl)cc1)C(=O)O` has what normalized growth? 1.01
